Where do the numbers come from? From ChEMBL document CHEMBL5390306.

# Tested on: Premature termination codon
# Method description: Readthrough activity against UGA type PTC 5'-TTGAAAGAGCAATAAAATGGCTTCAAC-3' from DMD mdx mouse overexpressed in COS7 cells assessed as ratio of luciferase activity to beta-galactosidase activity at 200 uM incubated for 48 hrs by Dual luciferase reporter assay
# Type: functional, cell-based
Listed next: entries and their corresponding Ratio.
Output: the number by itself.

Look over these answered cases.
{"columns": ["Mol", "Experimental result"],
 "data": [
  ["CCCC(=O)NCCCC[C@H](N)C(=O)N[C@H](CC(=O)NN(C)CC(=O)O)[C@H]1C[C@H]1CN", 2.05],
  ["CC(C)C[C@H](N)C(=O)N[C@H](CC(=O)NN(C)CC(=O)O)[C@H]1C[C@H]1CN", 3.08],
  ["CCCCCCCCC[C@H](N)C(=O)N[C@H](CC(=O)NN(C)CC(=O)O)[C@H]1C[C@H]1CN", 23],
  ["CN[C@@H]1[C@@H](O)[C@@H](O[C@@H]2[C@@H](O)[C@H](O[C@H]3O[C@H]([C@@H](C)O)[C@@H](O)[C@H](O)[C@H]3N)[C@@H](N)C[C@H]2N)OC[C@]1(C)O", 6.01],
  ["CN(CC(=O)O)NC(=O)C[C@@H](NC(=O)[C@@H](N)CCCCCCCO)[C@H]1C[C@H]1CN", 3.25]
]}

// recorded Ratio for CCCCCCC(=O)NC[C@H](N)C(=O)N[C@H](CC(=O)NN(C)CC(=O)O)[C@H]1C[C@H]1CN : 1.38

Please fill in: Ratio reported for CCCCCCCCC[C@H](N)C(=O)N[C@@H](CCCN)CC(=O)NN(C)CC(=O)O = 19.5

# compound CC(C)C[C@@H](N)C(=O)N[C@H](CC(=O)NN(C)CC(=O)O)[C@H]1C[C@H]1CN ; its Ratio = 1.01

The reported Ratio of the compound COCCCCCCC[C@H](N)C(=O)N[C@H](CC(=O)NN(C)CC(=O)O)[C@H]1C[C@H]1CN was 1.94

The measured Ratio associated with CCCCCC/C=C/C[C@H](N)C(=O)N[C@H](CC(=O)NN(C)CC(=O)O)[C@H]1C[C@H]1CN reads 16.9

----------
# Test system: Premature termination codon
# Method description: Readthrough activity against UGA type PTC 5'-TTGAAAGAGCAATAAAATGGCTTCAAC-3' from DMD mdx mouse overexpressed in COS7 cells assessed as ratio of luciferase activity to beta-galactosidase activity at 200 uM incubated for 48 hrs by Dual luciferase reporter assay
# Format: functional, cell-based
Property name: Ratio

Reference set, count: 2
{"columns": ["Mol", "Ratio"],
 "data": [
  ["CN(CC(=O)O)NC(=O)C[C@H](N)C[C@@H](O)CN", 1.55],
  ["CN(CC(=O)O)NC(=O)C[C@@H](N)CCCN", 2.69]
]}

Documented Ratio of CN(CC(=O)O)NC(=O)C[C@@H](N)[C@H]1C[C@H]1CN : 8.36
